Test system: J774.A1
Assay: Antiinflammatory activity against LPS-induced mouse J774.A1 cells assessed as inhibition of IL-6 release at 10 uM pretreated for 30 mins followed by LPS stimulation and measured after 24 hrs by ELISA relative to control
Type: functional
Details: time 24.5 hrs
Rule: inhibition at 10 µM under 80% gives false (0), otherwise true (1).

Please indicate if the recorded inhibition at 10 µM for CC(C)=CCc1c(OCCN2CCCC(C)C2)ccc2ccc(=O)oc12 (stereo unspecified) meets or exceeds 80%.
false (0)

Please indicate if the recorded inhibition at 10 µM for CC(C)=CCc1c(OCC2CCCO2)ccc2ccc(=O)oc12 (stereo unspecified) meets or exceeds 80%.
true (1)

Please indicate if the recorded inhibition at 10 µM for CCN1CCN(CCCOc2ccc3ccc(=O)oc3c2CC=C(C)C)CC1 meets or exceeds 80%.
true (1)

Please indicate if the recorded inhibition at 10 µM for CC(C)=CCc1c(OCc2cccc(F)c2)ccc2ccc(=O)oc12 meets or exceeds 80%.
false (0)

###

Assay: Half life in male Sprague-Dawley rat at 10 mg/kg, po by UPLC-MS/MS analysis
Format: ADME, organism-based
Settings: in vivo
MEASUREMENT TYPE: half-life
# include the unit after the value

Looking up CC(C)=CCc1c(OCCCCNCCN2CCOCC2)ccc2ccc(=O)oc12 , I see its half-life listed as 10.7 h

###

System: J774.A1
Assay: Antiinflammatory activity against LPS-induced mouse J774.A1 cells assessed as inhibition of IL-6 release pretreated for 30 mins followed by LPS stimulation and measured after 24 hrs by ELISA
Format: functional, cell-based
MEASUREMENT TYPE: pIC50
# pIC50 is unitless: minus log10 of the molar concentration; print number only

Looking up CC(C)=CCc1c(OCCCCNCCN2CCOCC2)ccc2ccc(=O)oc12 , I see its pIC50 listed as 5.37

###

System: J774.A1
Assay: Antiinflammatory activity against LPS-induced mouse J774.A1 cells assessed as inhibition of IL-6 release at 10 uM pretreated for 30 mins followed by LPS stimulation and measured after 24 hrs by ELISA relative to control
Type: functional
Details: time 24.5 hrs
MEASUREMENT TYPE: inhibition at 10 µM (%)
Give the number; % is assumed, so skip it.

A selection of reference data follows.
* CC(C)=CCc1c(OCC(=O)Nc2ccccc2Br)ccc2ccc(=O)oc12 | 88.3
* CC(C)=CCc1c(OCCN2CCOCC2)ccc2ccc(=O)oc12 | 71.7
* CC(C)=CCc1c(OCC2CC2)ccc2ccc(=O)oc12 | 64.2
* CC(C)=CCc1c(OCCN2CCCCC2)ccc2ccc(=O)oc12 | 10.6
* CC(C)=CCc1c(OCC(=O)NCCCN2CCOCC2)ccc2ccc(=O)oc12 | 21.5

Looking up CC(C)=CCc1c(OCC2CO2)ccc2ccc(=O)oc12 (stereo not drawn) , I see its inhibition at 10 µM listed as 82.3

Looking up CCN1CCN(C(=O)COc2ccc3ccc(=O)oc3c2CC=C(C)C)CC1 , I see its inhibition at 10 µM listed as 46

###

Assay: Aqueous solubility of compound in phosphate buffer at pH 7.4 measured after 24 hrs by HPLC analysis
Type: physicochemical
Reported solubility at 24 h values follow for various compounds
Give the number; µg/mL is assumed, so skip it.

* COc1ccc2ccc(=O)oc2c1CC=C(C)C [OSTHOLE] | 10

Okay, now this compound:
Looking up CC(C)=CCc1c(OCCCCNCCN2CCOCC2)ccc2ccc(=O)oc12 , I see its solubility at 24 h listed as 340

###

Assay: AUC (0 to t) in male Sprague-Dawley rat at 10 mg/kg, po by UPLC-MS/MS analysis
Format: ADME, organism-based
Settings: in vivo
MEASUREMENT TYPE: AUC(0-t)
# include the unit after the value

Looking up CC(C)=CCc1c(OCCCCNCCN2CCOCC2)ccc2ccc(=O)oc12 , I see its AUC(0-t) listed as 1120 ng·h/mL

###

Test: Tmax in male Sprague-Dawley rat at 10 mg/kg, po by UPLC-MS/MS analysis
Type: ADME, organism-based
Details: in vivo
MEASUREMENT TYPE: Tmax (h)
Give the number; h is assumed, so skip it.

Looking up CC(C)=CCc1c(OCCCCNCCN2CCOCC2)ccc2ccc(=O)oc12 , I see its Tmax listed as 3.33

###

Test system: J774.A1
Assay: Antiinflammatory activity against LPS-induced mouse J774.A1 cells assessed as inhibition of IL-6 release at 10 uM pretreated for 30 mins followed by LPS stimulation and measured after 24 hrs by ELISA relative to control
Type: functional
Settings: time 24.5 hrs
Reported inhibition at 10 µM values follow for various compounds
Give the number; % is assumed, so skip it.

A selection of reference data follows.
• CC(C)=CCc1c(OCCCN2CCCC2)ccc2ccc(=O)oc12 = 63.3
• CC(C)=CCc1c(OCCCCNCCN2CCOCC2)ccc2ccc(=O)oc12 = 95
• CC(C)=CCc1c(OCCN2CCN(C)CC2)ccc2ccc(=O)oc12 = 69
• CC(C)=CCc1c(OCCCN2CCOCC2)ccc2ccc(=O)oc12 = 69
• CC(C)=CCc1c(OCCCCN2CCN(C)CC2)ccc2ccc(=O)oc12 = 82.3

Looking up CC(C)=CCc1c(OCc2ccc(C)cc2)ccc2ccc(=O)oc12 , I see its inhibition at 10 µM listed as 88.7

Looking up CC(C)=CCc1c(OCC(=O)Nc2ccccc2)ccc2ccc(=O)oc12 , I see its inhibition at 10 µM listed as 48.5

Looking up CC(C)=CCc1c(OCc2cccc(C)c2)ccc2ccc(=O)oc12 , I see its inhibition at 10 µM listed as 77.9

Looking up CC(C)=CCc1c(OCCNCCN2CCOCC2)ccc2ccc(=O)oc12 , I see its inhibition at 10 µM listed as 46.8

Looking up CC(C)=CCc1c(OCC2CCCCC2)ccc2ccc(=O)oc12 , I see its inhibition at 10 µM listed as 88

Looking up CCN1CCN(CCOc2ccc3ccc(=O)oc3c2CC=C(C)C)CC1 , I see its inhibition at 10 µM listed as 88.6
